The reported numbers originate from ChEMBL document CHEMBL3885881.

# Species: Rattus norvegicus
# test_summary: DrugMatrix - Regimen: Daily Repeat
# Assay type: toxicity, organism-based, Sprague-Dawley
# Parameters: regimen Daily Repeat, gender Male, age 6-8 weeks
# experimental_parameters: in vivo, po, 0 mg/kg, 72 h, tissue Plasma, route oral GAVAGE, dose level Control, time 3 day, vehicle 100 % WATER
# strict inequality: CARBON DIOXIDE < 30 mmol/L yields true, everything else yields false

compound	category
C[C@]12Cc3c[nH]nc3C[C@@H]1CC[C@@H]1[C@@H]2CC[C@@]2(C)[C@H]1CC[C@]2(C)O	false

Req: Quick check: does `NNC(=O)c1ccncc1` have CARBON DIOXIDE under 30 mmol/L?
Resp: true

Req: Quick check: does `Cc1cc(NS(=O)(=O)c2ccc(N)cc2)no1` have CARBON DIOXIDE under 30 mmol/L?
Resp: true

Req: Quick check: does `CC1(C)S[C@@H]2[C@H](NC(=O)[C@H](N)c3ccc(O)cc3)C(=O)N2[C@H]1C(=O)O` have CARBON DIOXIDE under 30 mmol/L?
Resp: false

----------
# Species on record: Rattus norvegicus
# test_summary: DrugMatrix - Regimen: Daily Repeat
# Type: toxicity, organism-based, Sprague-Dawley
# Set-up: regimen Daily Repeat, gender Male, age 6-8 weeks
# experimental_parameters: in vivo, iv, 0 mg/kg, 120 h, tissue Blood, dose level Control, time 5 day, vehicle 100 % SALINE
outcome_measure: ABSOLUTE LYMPHOCYTE (CELLS/uL)
Answers are plain numbers, in CELLS/uL.

List reported ABSOLUTE LYMPHOCYTE for each of these molecules:
1. NCC[C@H](O)C(=O)N[C@@H]1C[C@H](N)[C@@H](O[C@H]2O[C@H](CN)[C@@H](O)[C@H](O)[C@H]2O)[C@H](O)[C@H]1O[C@H]1O[C@H](CO)[C@@H](O)[C@H](N)[C@H]1O [AMIKACIN]
2. CN(N=O)C(=O)N[C@@H](C=O)[C@@H](O)[C@H](O)[C@H](O)CO [STREPTOZOCIN]

Resp:
[6333.5, 13517.17]

List reported ABSOLUTE LYMPHOCYTE for each of these molecules:
1. CC1(C)S[C@@H]2[C@H](NC(=O)[C@H](NC(=O)N3CCNC3=O)c3ccccc3)C(=O)N2[C@H]1C(=O)O [AZLOCILLIN]
2. CC[C@@]1(O)C(=O)OCc2c1cc1n(c2=O)Cc2cc3ccccc3nc2-1 [CAMPTOTHECIN]

Resp:
[14562, 11849.17]

----------
Please provide measured ABSOLUTE MONOCYTE for the entries that follow.
# Species on record: Rattus norvegicus
# test_summary: DrugMatrix - Regimen: Daily Repeat
# Type: toxicity, organism-based, Sprague-Dawley
# Design: regimen Daily Repeat, gender Male, age 6-8 weeks
# experimental_parameters: in vivo, po, 0 mg/kg, 120 h, tissue Blood, route oral GAVAGE, dose level Control, time 5 day, vehicle .5 % CMC

Solved cases below.
compound	result
CCC[C@@H]1C[C@@H](C(=O)N[C@@H]([C@H]2O[C@H](SC)[C@H](O)[C@@H](O)[C@H]2O)[C@@H](C)O)N(C)C1	32 CELLS/uL
COc1c(C)c2c(c(O)c1C/C=C(\C)CCC(=O)OCCN1CCOCC1)C(=O)OC2 [MYCOPHENOLATE MOFETIL]	303.83 CELLS/uL
O=c1[nH]cc(F)c(=O)[nH]1	52.83 CELLS/uL
CC1(C)[C@H]2CC[C@]1(C)C(=O)C2 [(-)-CAMPHOR]	29.17 CELLS/uL
COC(=O)c1ccc(O)cc1	60.5 CELLS/uL

List reported ABSOLUTE MONOCYTE for each of these compounds:
1. CC(C)[C@H](N)C(=O)OCCOCn1cnc2c(=O)[nH]c(N)nc21
2. CCc1ccc(C(=O)C(C)CN2CCCCC2)cc1 (stereo not drawn)
3. Brc1ccccc1
4. Cc1c(-c2ccccc2)oc2c(C(=O)OCCN3CCCCC3)cccc2c1=O [FLAVOXATE]
5. O=c1cc(-c2ccccc2)oc2c1ccc1ccccc12
6. CC(/C=C1\SC(=S)N(CC(=O)O)C1=O)=C\c1ccccc1
7. CCOC(=O)OC(C)OC1=C(C(=O)Nc2ccccn2)N(C)S(=O)(=O)c2ccccc21 (stereo not drawn)
8. CN1CCC[C@@H]1CCO[C@](C)(c1ccccc1)c1ccc(Cl)cc1

Resp:
["139.83 CELLS/uL", "276 CELLS/uL", "124 CELLS/uL", "173 CELLS/uL", "160 cells/µL", "303.83 CELLS/uL", "124 CELLS/uL", "303.83 CELLS/uL"]

----------
Please provide measured MEAN CORPUSCULAR HEMOGLOBIN CONCENTRATION for the entries that follow.
# Species: Rattus norvegicus
# test_summary: DrugMatrix - Regimen: Daily Repeat
# Format: toxicity, organism-based, Sprague-Dawley
# Parameters: regimen Daily Repeat, gender Male, age 6-8 weeks
# experimental_parameters: in vivo, po, 0 mg/kg, 72 h, tissue Blood, route oral GAVAGE, dose level Control, time 3 day, vehicle .5 % CMC
Give bare numbers, in G/DL.

compound	measured_number
NCC(=O)O	39.5

List reported MEAN CORPUSCULAR HEMOGLOBIN CONCENTRATION for each of these compounds:
1. CN1CCC[C@@H]1CCO[C@](C)(c1ccccc1)c1ccc(Cl)cc1
2. O=C1CCc2cc(OCCCCc3nnnn3C3CCCCC3)ccc2N1
3. CC[C@H]1OC(=O)[C@H](C)[C@@H](O[C@H]2C[C@@](C)(OC)[C@@H](O)[C@H](C)O2)[C@H](C)[C@@H](O[C@@H]2O[C@H](C)C[C@H](N(C)C)[C@H]2O)[C@](C)(O)C[C@@H](C)/C(=N\OCOCCOC)[C@H](C)[C@@H](O)[C@]1(C)O
4. Brc1ccccc1
5. COC(=O)c1ccc(O)cc1
6. C[C@]12CCC(=O)C=C1CC[C@@H]1[C@@H]2C(=O)C[C@@]2(C)[C@H]1CC[C@]2(O)C(=O)CO

Resp:
1: 38.98; 2: 31; 3: 30.47; 4: 36.9; 5: 38.82; 6: 30.47

List reported MEAN CORPUSCULAR HEMOGLOBIN CONCENTRATION for each of these compounds:
1. CC1(C)[C@H]2CC[C@]1(C)C(=O)C2 [(-)-CAMPHOR]
2. CN1C(C(=O)Nc2ccccn2)=C(O)c2ccccc2S1(=O)=O
3. C=C1CC[C@H](O)C/C1=C/C=C1\CCC[C@]2(C)[C@@H]([C@H](C)/C=C/[C@H](C)C(C)C)CC[C@@H]12
4. CCC[C@@H]1C[C@@H](C(=O)N[C@@H]([C@H]2O[C@H](SC)[C@H](O)[C@@H](O)[C@H]2O)[C@@H](C)O)N(C)C1
5. CCOC(=O)OC(C)OC1=C(C(=O)Nc2ccccn2)N(C)S(=O)(=O)c2ccccc21 (centres undefined)

Resp:
1: 36.85; 2: 36.74; 3: 38.18; 4: 38.85; 5: 36.9

List reported MEAN CORPUSCULAR HEMOGLOBIN CONCENTRATION for each of these compounds:
1. CC(C)[C@H](N)C(=O)OCCOCn1cnc2c(=O)[nH]c(N)nc21
2. Cc1c(-c2ccccc2)oc2c(C(=O)OCCN3CCCCC3)cccc2c1=O [FLAVOXATE]
3. CCc1ccc(C(=O)C(C)CN2CCCCC2)cc1 (centres undefined)
4. CCc1cccc2c3c([nH]c12)C(CC)(CC(=O)O)OCC3 (centres undefined)
5. COc1c(C)c2c(c(O)c1C/C=C(\C)CCC(=O)OCCN1CCOCC1)C(=O)OC2 [MYCOPHENOLATE MOFETIL]
6. O=c1[nH]cc(F)c(=O)[nH]1
7. CC(/C=C1\SC(=S)N(CC(=O)O)C1=O)=C\c1ccccc1

Resp:
[39.4, 40.27, 37.43, 30.47, 38.98, 37.97, 38.98]

----------
Please provide measured HEMATOCRIT for the entries that follow.
# Species: Rattus norvegicus
# test_summary: DrugMatrix - Regimen: Daily Repeat
# Type: toxicity, organism-based, Sprague-Dawley
# Set-up: regimen Daily Repeat, gender Male, age 6-8 weeks
# experimental_parameters: in vivo, iv, 0 mg/kg, 72 h, tissue Blood, dose level Control, time 3 day, vehicle 100 % SALINE
Express the reported value numerically, then name its unit.

Solved cases below.
molecule	HEMATOCRIT
CC1(C)S[C@@H]2[C@H](NC(=O)[C@H](NC(=O)N3CCNC3=O)c3ccccc3)C(=O)N2[C@H]1C(=O)O [AZLOCILLIN]	34.63%
NCC[C@H](O)C(=O)N[C@@H]1C[C@H](N)[C@@H](O[C@H]2O[C@H](CN)[C@@H](O)[C@H](O)[C@H]2O)[C@H](O)[C@H]1O[C@H]1O[C@H](CO)[C@@H](O)[C@H](N)[C@H]1O [AMIKACIN]	33.67%
CC[C@@]1(O)C(=O)OCc2c1cc1n(c2=O)Cc2cc3ccccc3nc2-1 [CAMPTOTHECIN]	34.62%

--- query ---
Req: What value of HEMATOCRIT has been recorded for this entry: CN(N=O)C(=O)N[C@@H](C=O)[C@@H](O)[C@H](O)[C@H](O)CO [STREPTOZOCIN]
Resp: 33.98%
